Every entry's value here was drawn from BindingDB's records for doi:10.1016/j.bmc.2013.11.045.

experiment: Inhibition of aromatase in human MCF7 cells
Form field: IC50 (one value per entry).
The reply should be a number in µM, with the unit left off.

molecule: O=C1c2ccccc2OCC1c1cccnc1 (configuration not stated)
reading unit: µM
IC50: 44

Quick one: IC50 of O=C1c2ccccc2OCC1c1ccc(Oc2ccccc2)cc1 (configuration not stated) ?
17
